Target: Thyrotropin releasing hormone degrading enzyme (Sus scrofa) (UniProt A0A287AP33)
Sequence (A0A287AP33 as listed by the source): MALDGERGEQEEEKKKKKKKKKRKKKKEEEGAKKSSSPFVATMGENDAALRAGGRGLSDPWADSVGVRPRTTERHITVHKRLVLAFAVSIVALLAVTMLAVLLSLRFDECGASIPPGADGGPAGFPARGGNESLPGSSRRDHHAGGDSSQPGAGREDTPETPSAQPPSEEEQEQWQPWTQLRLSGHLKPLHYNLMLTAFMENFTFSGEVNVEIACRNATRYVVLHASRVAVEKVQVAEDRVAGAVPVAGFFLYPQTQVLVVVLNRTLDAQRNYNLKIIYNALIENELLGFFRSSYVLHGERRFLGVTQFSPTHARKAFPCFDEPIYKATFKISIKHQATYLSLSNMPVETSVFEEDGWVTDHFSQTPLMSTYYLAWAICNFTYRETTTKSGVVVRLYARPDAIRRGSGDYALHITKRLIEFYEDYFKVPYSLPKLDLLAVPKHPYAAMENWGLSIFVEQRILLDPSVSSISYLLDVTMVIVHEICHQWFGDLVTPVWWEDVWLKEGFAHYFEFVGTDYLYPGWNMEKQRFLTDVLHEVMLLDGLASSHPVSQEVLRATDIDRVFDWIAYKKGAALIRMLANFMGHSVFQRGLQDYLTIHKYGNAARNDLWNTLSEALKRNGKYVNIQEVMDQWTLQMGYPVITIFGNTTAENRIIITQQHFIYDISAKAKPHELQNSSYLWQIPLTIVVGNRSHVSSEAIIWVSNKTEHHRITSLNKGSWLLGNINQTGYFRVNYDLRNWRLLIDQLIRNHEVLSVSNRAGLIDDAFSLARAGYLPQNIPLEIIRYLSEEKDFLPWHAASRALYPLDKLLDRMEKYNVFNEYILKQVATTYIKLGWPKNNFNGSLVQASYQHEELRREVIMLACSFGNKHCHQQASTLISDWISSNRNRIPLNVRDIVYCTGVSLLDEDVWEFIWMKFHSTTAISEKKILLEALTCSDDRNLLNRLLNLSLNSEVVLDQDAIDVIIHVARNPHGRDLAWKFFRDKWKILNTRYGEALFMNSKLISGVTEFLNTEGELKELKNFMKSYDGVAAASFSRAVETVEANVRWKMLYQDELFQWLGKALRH
Test: Inhibition of pig brain TRH-DE at 1 mM using Glp-His-ProAMC as substrate by DPP-4-based continuous fluorometric method
Non-standard residues stand in square brackets, D forms with d. Residues, ends and D or L forms follow the SMILES beside them. pGlu = O=C1CC[C@@H](C(=O)O)N1; Phg = N[C@H](C(=O)O)c1ccccc1
Field: inhibition. Provide a value for each of the molecules that follow.
Answers are plain numbers, in %.

1. NC(=O)[C@@H]1CCCN1C(=O)[C@@H]1CCCN1C(=O)[C@@H]1CCC(=O)N1 ([pGlu]-Pro-Pro-NH2) :: 3
2. NC(=O)[C@@H]1CCCN1C(=O)[C@H](CCC(=O)O)NC(=O)[C@@H]1CCC(=O)N1 ([pGlu]-Glu-Pro-NH2) :: 17
3. NC(=O)[C@@H]1CCCN1C(=O)[C@H](CC(=O)O)NC(=O)[C@@H]1CCC(=O)N1 ([pGlu]-Asp-Pro-NH2) :: 1
4. NC(=O)[C@@H]1CCCN1C(=O)CNC(=O)[C@@H]1CCC(=O)N1 ([pGlu]-Gly-Pro-NH2) :: 8
5. NC(=O)CC[C@H](NC(=O)[C@@H]1CCC(=O)N1)C(=O)N1CCC[C@H]1C(N)=O ([pGlu]-Gln-Pro-NH2) :: 83
6. NC(=O)[C@@H]1CCCN1C(=O)[C@@H](NC(=O)[C@@H]1CCC(=O)N1)c1ccccc1 ([pGlu]-[Phg]-Pro-NH2) :: 57

--- query ---
Any idea what inhibition was measured for NC(=O)[C@@H]1CCCN1C(=O)[C@H](Cc1c[nH]c2ccccc12)NC(=O)[C@@H]1CCC(=O)N1 ([pGlu]-Trp-Pro-NH2) ?
71

Reference source: ChEMBL document CHEMBL3880382
